System under test: T1, 4H2698-AA
T1 chain: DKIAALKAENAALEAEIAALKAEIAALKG
Experiment: two-hybrid library CCmax;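 also: natural log of median RNA to DNA barcode read ratio; higher means stronger binding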
Test parameters: mean of both orientations
// values below are reported interaction score
Endpoint: interaction score

• DKIAALEAENAALKAKIAALEAEIAALKG [4H2274-AA] = 0.894
• DENAALEAEIAALKAKNAALEAKIAALKG [4H1142-AA] = -1.05
• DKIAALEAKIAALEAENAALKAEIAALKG [4H2330-AA] = -1.05
• DKIAALEAENAALKAEIAALKAKIAALEG [4H2253-AA] = 0.72
• DKIAALEAKNAALEAKIAALKAEIAALEG [4H2473-AA] = 1.68
• DENAALEAKIAALEAENAALKAKIAALKG [4H1310-AA] = -0.391
